# method summary: compound binding in COS7 lysate, probe aLAP1, primary screen, cell lysate, small-molecule microarray (AID 1124);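 also: lysate comes from COS7 cells expressing LAP1 and is applied at 0.3 µg/mL; score merges spot fluorescence near 667 nm with signal-to-noise over triplicate slides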
# conditions used: probe aLAP1, fluorescence, higher = more signal
readout name: composite z-score
Quick one: just the number, no unit, thanks!

Solved entries (count: 10):
compound	composite z-score
O=C1C2C=CC(C(O)Cc3ccccc3)N(n3cnnc3)C2C(=O)N1Cc1ccccc1 (stereo not drawn)	0.75
CCOC(=O)C[C@H]1[C@H](OC(=O)c2ccc(-c3ccccc3)cc2)[C@@H](NC(=O)Cc2ccc(OC)cc2)c2cc(OCCCO)ccc2N1C(=O)c1ccccc1	-0.105
COc1ccc([C@H]2OC[C@@H]3C[C@@H](Cc4ccccc4)C(=O)N32)cc1	-0.123
COCCOC(=O)N1C(=O)[C@@]2(c3ccccc31)[C@H](C(=O)N1CCc3cc(OC)c(OC)cc3C1)[C@H]1C(=O)O[C@H](c3ccccc3)[C@H](c3ccccc3)N1[C@@H]2c1ccc(OCCO)cc1	0.953
O=C1c2ccccc2[C@](Cc2ccccc2I)(C(=O)NCC(F)(F)F)[C@H](c2ccc(CO)cc2)N1Cc1ccccc1Cl	1.42
COCCOC(=O)N1C(=O)[C@@]2(c3cc(C#CCC(C(=O)OC)C(=O)OC)ccc31)[C@H](c1ccccc1OCCO)N1[C@H](c3ccccc3)[C@H](c3ccccc3)OC(=O)[C@H]1[C@@H]2C(=O)N1CCN(c2ncccn2)CC1	0.596
COc1cc(C(O)C2C=CC3C(=O)NC(=O)C3N2Nc2ccccn2)cc(OC)c1OC (stereo not drawn)	-0.0653
CC(C)=CCN[C@H](CO)c1ccccc1	-0.021
COC(=O)[C@@]1(Cc2ccccc2)[C@H]2c3cc(C(=O)N4CCCC4)n(Cc4ccc(S(C)(=O)=O)cc4)c3C[C@H]2CN1C(=O)c1ccccc1	0.559
COc1ccc([Si](C)(C)[C@@H]2[C@@H](CCO)O[C@]3(C(=O)N(Cc4ccc(N(C=O)c5ccccc5)cc4)c4ccccc43)[C@H]2C)cc1	-0.456

Report measured composite z-score; entry is `COc1ccc(CCNC(=O)[C@@H]2c3ccccc3C(=O)N(Cc3ccccc3Cl)[C@H]2c2ccc(CO)cc2)cc1`
0.0463

Input `CC(C)OC(=O)C=C1C[C@@H](c2ccccn2)O[C@@H](c2ccccn2)O1` , output reported composite z-score.
1.32

Fill in reported composite z-score for this entry: `CC(C)C[C@@H]1NC(=O)[C@@H]2C[C@H](C(=O)O)[C@H](c3cccc(OCCO)c3)N2C1=O`
0.283

Give recorded composite z-score. `CO[C@H]1O[C@H](CO)[C@@H](OC(=O)Nc2cccc(F)c2)[C@H](OC(=O)Nc2ccccc2)[C@@H]1OC(=O)Nc1ccccc1`
1.02

Supply composite z-score value. Item: CC1(C)C2C=C(C(O)C3C=CC4C(=O)NC(=O)C4N3Nc3ccc(Cl)cc3Cl)C[C@@H]1C2 (stereo partly drawn)
0.906

Assign composite z-score to the following record: `COc1ccc(CCNC(=O)[C@@]2(C)c3ccccc3C(=O)N(C(C)C)[C@H]2c2ccc(CO)cc2)cc1`
0.591

----------
# method summary: small-molecule microarray binders of probe aDKK1, primary screen, biochemical, biotinylated probe, 635/667 nm fluorescence (AID 1099);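 also: score merges 667nm spot fluorescence with signal to noise across triplicate slides; reference of the scale not given here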
# conditions used: higher = more signal
Response key: y means composite z-score >= 0.05; n means composite z-score < 0.05.

Some entries whose results are on file:
molecule	group label
OCCCC1=CC(c2cccs2)N(Cc2cc3c(cc2Br)OCO3)CC1 (configuration not stated)	n
C=CCC(OC(C)=O)[C@@H]1[C@@H](N(Cc2ccc(-c3ccccc3)cc2)C(=O)c2ccc(-c3ccccc3)cc2)c2cc(OCCCO)ccc2N1C(=O)Cc1ccc2ccccc2c1 (some centres not stated)	n
O=C1N[C@@H](Cc2ccccc2)C(=O)N2[C@@H]1C[C@@H](C(=O)O)[C@H]2c1cccc(OCCO)c1	n
COc1ccccc1CN1C(=O)c2ccccc2[C@@]2(Cc3ccccc3N(CC(C)C)C2=O)[C@@H]1c1ccc(CO)cc1	n
[N-]=[N+]=Nc1ccccc1[C@@H]1OC(c2ccc(OCCCO)cc2)=N[C@]1(CCS(=O)(=O)c1ccccc1)C(N)=O	y
COCCOC(=O)N1C(=O)[C@@]2(c3cc(C#CCC(C(=O)OC)C(=O)OC)ccc31)[C@H](c1ccccc1OCCO)N1[C@H](c3ccccc3)[C@H](c3ccccc3)OC(=O)[C@H]1[C@@H]2C(=O)NC[C@H](O)c1ccccc1	y

Does composite z-score meet or surpass 0.05 for `Oc1ccc2cc[n+](Cc3sc4ccccc4c3Cl)cc2c1` ?
y

----------
Entries annotated with measured z-score
# method summary: PSAC antagonists in infected red cells, primary screen, cell-based, P. falciparum Indochina, OD700, 2 h (AID 1155);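 also: lysis reports solute entry through the parasite surface anion channel PSAC; channel blockers reduce lysis of infected cells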
# conditions used: P. falciparum Indochina infected erythrocytes, osmotic lysis OD700; higher = more signal, called active from +8 up or from −8 down
Please respond with just the number, no unit label.

For orientation, consider the following solved cases.
> print(dat)
                                   molecule  quantitative.readout
1  COc1cc(Br)cc(C(O)C2C=CC3C(=O)N(C)C(=O)C3N2N2CCCCC2)c1OC (stereo not drawn)                  1.27
2  NC(=O)NCC#Cc1ccc2c(c1)[C@]1(C(=O)N2)[C@H](c2ccc(O)cc2)N2[C@H](c3ccccc3)[C@H](c3ccccc3)OC(=O)[C@H]2[C@@H]1C(=O)O                 0.179
3  CC(C)(C)OC(=O)CC[C@]1(C(=O)N2CCOCC2)N=C(c2ccc(OCCCO)cc2)O[C@H]1c1ccccc1N=[N+]=[N-]                  31.2
4  C=C(COC)/C(=C/C[C@@H](OC(=O)c1ccncc1)c1ccc(CO)o1)c1cc(C(=O)OC)ccc1OC                 0.453

Provide z-score value for the following molecule: `COC(=O)[C@@]1(Cc2ccc(F)cc2)[C@H]2c3cc(C(=O)N(C)C)n(Cc4ccccc4)c3C[C@H]2CN1C(=O)c1ccccc1`
0.672

----------
# method summary: CREB reporter modulators without forskolin, primary screen, cell-based, PC12, CRE-LacZ reporter, unstimulated (AID 1145)
# conditions used: no forskolin, luminescence, 4.5 h, higher = more signal, called active from +8 up or from −8 down
Listed here: items and their measured z-score.
// response body must contain only the number

Recorded z-score, per entry:
> print(dat)
                               given.smiles  readout.name  quantitative.readout
1  CCC[C@@H]1C[C@@]1(CCC)[C@@H](NS(=O)(=O)c1cccc2cccnc12)c1ccc(Cl)cc1       z-score                -0.754
2  C=C(/C(=C/C[C@H](OC(C)=O)c1ccccc1OCCO)c1cnc2ccccc2c1)C(C)C       z-score                  4.98
3  C=CC[C@]1(C(=O)NCc2ccccc2)N=C(c2ccc(OCCCO)cc2)O[C@H]1c1ccccc1N=[N+]=[N-]       z-score                  1.49
4  COC(=O)[C@@]1(Cc2ccc(OC)cc2)[C@H]2c3cc(C(=O)N4CCCC4)n(Cc4ccc(O)c(OC)c4)c3C[C@H]2CN1C(=O)c1ccccc1       z-score                 0.962
5  O=C(N1CCCCC1)[C@]1(Cc2ccccc2)N=C(c2ccc(OCCCO)cc2)O[C@@H]1c1ccccc1       z-score                 0.558

Let me know recorded z-score for `CCCCCCc1nc(-c2cc(C)c(OC)c(C)c2)cc2c1[Si](C(C)C)(C(C)C)OC2` , thanks.
-0.0989

Complete the entry with z-score for `COCCOC(=O)N1C(=O)[C@@]2(c3cc(C#CCCO)ccc31)[C@H](C(N)=O)[C@H]1C(=O)O[C@H](c3ccccc3)[C@H](c3ccccc3)N1[C@@H]2c1ccc(O)cc1`
-0.602

Specify z-score for `Cc1ccc(S[C@]2(C(=O)NCCCN(C)C)CC(=O)N(Cc3ccccc3C(F)(F)F)[C@@H]2c2ccc(CO)cc2)cc1` and stop.
-0.295

----------
Listing: composite z-score of selected compounds
# Tested on: PRMT1 (protein arginine N-methyltransferase 1)
# method summary: PRMT1 binders on small-molecule microarrays, primary screen, biochemical, small-molecule microarray, 635 nm fluorescence (AID 1088);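 also: binding of Prmt1 protein to compounds spotted on small-molecule microarray slides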
# conditions used: small-molecule microarray binding, higher = more signal
Just the number.

Worked examples, 5 compounds total:
compound	quantitative readout
C=CCC(OC(C)=O)[C@@H]1[C@@H](N(Cc2cccc3ccccc23)C(=O)c2ccc(-c3ccccc3)cc2)c2cc(OCCCO)ccc2N1C(=O)c1ccc2ccccc2c1 (stereo partly drawn)	0.833
NC(=O)[C@@H]1[C@H]2C(=O)O[C@H](c3ccccc3)[C@H](c3ccccc3)N2[C@H](c2ccc(O)cc2)[C@@]12C(=O)Nc1ccccc12	1.41
COc1ccccc1CN1C(=O)c2ccccc2[C@@]2(Cc3ccccc3N(CC(C)C)C2=O)[C@@H]1c1ccc(CO)cc1	0.545
CCCC[C@@H]1C[C@H]1[C@@H](NC(=O)c1ccco1)c1ccc(-c2ccccc2)cc1	1.11
C=C(C)[C@@H]1CC=C(C(O)C2C=CC3C(=O)N(c4ccccc4)C(=O)C3N2Nc2ccccc2)CC1 (stereo partly drawn)	1.55

Answer with reported composite z-score of `Oc1ccc2cc[n+](Cc3sc4ccccc4c3Cl)cc2c1`
0.599
